# experimentalSystem: full-length human BTK (Homo sapiens)
# Construct: 2.5× stocks of full-length human BTK (08-080); purchased CarnaBio USA, Inc., Natick, Mass; 08-080
# Sequence (Q06187 whole entry): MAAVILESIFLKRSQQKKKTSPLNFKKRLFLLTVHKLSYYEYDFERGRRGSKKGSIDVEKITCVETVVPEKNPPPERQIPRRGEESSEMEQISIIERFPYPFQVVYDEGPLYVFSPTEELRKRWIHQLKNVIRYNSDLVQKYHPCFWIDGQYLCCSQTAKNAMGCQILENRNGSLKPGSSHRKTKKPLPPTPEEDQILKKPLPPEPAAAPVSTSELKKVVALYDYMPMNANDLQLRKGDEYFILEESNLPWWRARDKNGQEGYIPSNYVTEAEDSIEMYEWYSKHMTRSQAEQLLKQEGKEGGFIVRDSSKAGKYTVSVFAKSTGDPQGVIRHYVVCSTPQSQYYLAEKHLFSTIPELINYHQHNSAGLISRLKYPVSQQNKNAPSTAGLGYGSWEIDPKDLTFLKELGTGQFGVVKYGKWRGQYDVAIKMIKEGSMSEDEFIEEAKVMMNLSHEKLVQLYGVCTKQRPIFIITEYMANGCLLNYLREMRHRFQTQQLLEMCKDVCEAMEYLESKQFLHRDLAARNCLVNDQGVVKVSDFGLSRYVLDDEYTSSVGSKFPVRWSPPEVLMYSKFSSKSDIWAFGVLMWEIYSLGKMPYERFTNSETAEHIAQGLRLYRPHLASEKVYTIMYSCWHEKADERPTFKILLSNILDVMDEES
# protocolText: Assay A: BTK IC50 Enzyme Assay (microfluidic off-chip mobility shift kinase assay)
# Format: biochemical
# conditionsUsed: full-length human BTK, kinKDR peptide substrate, incubated 90 min at 27 C; read-out: Assay A (Time Dependent BTK Enzyme Assay IC50)
pIC50: −log10 of the molar value.
parameter: pIC50

Worked set:
Enquiry: Give pIC50 for `C=CC(=O)N[C@H]1CCN(c2ccc(C(N)=O)c(Nc3cccnc3)n2)C1` tested on full-length human BTK (Homo sapiens).
Return: > 7.00

Enquiry: Give pIC50 for `C=CC(=O)N[C@H]1CCN(c2ccc(C(N)=O)c(Nc3ccc(Oc4ccnc(C(=O)NC)c4)cc3)n2)C1` tested on full-length human BTK (Homo sapiens).
Return: > 7.00

Enquiry: Give pIC50 for `N#CN1CCC[C@@H](c2cnc(Oc3ccc(Oc4ccc(F)cc4F)cc3)c(C(N)=O)c2)C1` tested on full-length human BTK (Homo sapiens).
Return: < 5.30

Enquiry: Give pIC50 for `C=CC(=O)N[C@@H]1CCN(c2ccc(C(N)=O)c(N)n2)C1` tested on full-length human BTK (Homo sapiens).
Return: 5.30 to 6.00

Enquiry: Give pIC50 for `C=CC(=O)N1CCC(c2ccc(C(N)=O)c(Nc3ccc(CCN4CCCC4)cc3)n2)CC1` tested on full-length human BTK (Homo sapiens).
Return: > 7.00

Enquiry: Give pIC50 for `C=CC(=O)N[C@H]1CCN(c2cc(Oc3ccc(Oc4cccc(C#N)c4)cc3)c(C(N)=O)cn2)C1` tested on full-length human BTK (Homo sapiens).
Return: 6.00 to 7.00

---
Enquiry: Give pIC50 for `C=CC(=O)N[C@H]1CCN(c2ccc(C(N)=O)c(Nc3ccc(OC)cc3)n2)C1` tested on full-length human BTK (Homo sapiens).
Return: > 7.00

Enquiry: Give pIC50 for `C=CC(=O)N[C@H]1CCN(c2ccc(C(N)=O)c(Nc3ccc(N4CCCCC4)cc3)n2)C1` tested on full-length human BTK (Homo sapiens).
Return: > 7.00

Ref: patent US10329270B2
